Data origin: ChEMBL document CHEMBL3421610

assay_details: Half life in mouse liver microsomes at 1 uM by LC/MS analysis
Type: ADME
measurement_kind: half-life at 1 µM (min)

>>> recorded_result("CCN(CC)CCCCN/C(=N\\c1ccnc2cc(Cl)ccc12)C(C)C")
42
>>> recorded_result("COc1ccc2nc3cc(Cl)ccc3c(N/C(C)=N/CCCN(C)C)c2n1")
42
>>> recorded_result("CCN(CC)CCC/N=C(/Nc1c2ccc(Cl)cc2nc2ccc(OC)nc12)C(C)C")
22
>>> recorded_result("C/C(=N/c1ccnc2cc(Cl)ccc12)NCCCN1CCCCC1")
25
>>> recorded_result("Clc1ccc2c(/N=C(\\NCCCN3CCCCC3)c3ccccc3)ccnc2c1")
18

----------
Examples of compounds with documented AUC(0-t) follow.
assay_details: AUClast in ICR mouse at 80 mg/kg, po
Assay type: ADME, organism-based
Set-up: time 0 - last, dose 80 mg/kg, route oral
measurement_context: plasma
measurement_kind: AUC(0-t) (ng·h/mL)

>>> recorded_result("CCN(CC)CCC/N=C(\\C)N(CCCN(CC)CC)c1c2ccc(Cl)cc2nc2ccc(OC)nc12")
4930
>>> recorded_result("CCN(CC)CCCN/C(=N\\c1ccnc2cc(Cl)ccc12)C(C)C")
3510

----------
assay_details: Half life in mouse liver microsomes at 1 uM by LC/MS analysis
Assay type: ADME
Examples of molecules with documented half-life at 1 µM follow.
measurement_kind: half-life at 1 µM (min)

>>> recorded_result("CC(C)/C(=N/c1ccnc2cc(Cl)ccc12)NC1CCN(Cc2ccccc2)CC1")
30
>>> recorded_result("COc1ccc2nc3cc(Cl)ccc3c(N/C(=N/CCCN(C)C)C(C)C)c2n1")
46
>>> recorded_result("CCN(CC)CCN/C(=N\\c1ccnc2cc(Cl)ccc12)C(C)C")
12
>>> recorded_result("C/C(=N/c1ccnc2cc(Cl)ccc12)NCCc1ccncc1")
13
>>> recorded_result("CCN(CC)CCC/N=C(/Nc1c2ccc(Cl)cc2nc2ccc(OC)nc12)c1ccccc1")
26

----------
assay_details: AUCinfinity in ICR mouse at 80 mg/kg, po
Format: ADME, organism-based
Design: time infinity, dose 80 mg/kg, route oral
measurement_context: plasma
Examples of molecules with documented AUC(0-inf) follow.
measurement_kind: AUC(0-inf) (ng·h/mL)

>>> recorded_result("CCN(CC)CCCN/C(=N\\c1ccnc2cc(Cl)ccc12)C(C)C")
3620
>>> recorded_result("CCN(CC)CCC/N=C(\\C)N(CCCN(CC)CC)c1c2ccc(Cl)cc2nc2ccc(OC)nc12")
8950

----------
Tested on: Plasmodium falciparum
assay_details: Antimalarial activity against chloroquine-resistant Plasmodium falciparum C235 assessed as growth inhibition after 18 hrs by [3H]-hypoxanthine uptake assay
Type: functional, organism-based
measurement_kind: IC50 (nM)

>>> recorded_result("CCN(CC)CCCN/C(=N\\c1ccnc2cc(Cl)ccc12)c1cccnc1")
79.5
>>> recorded_result("COc1ccc2nc3cc(Cl)ccc3c(N/C(=N/CCCN(C)C)c3ccc(Cl)cc3)c2n1")
4.3
>>> recorded_result("C/C(=N/c1ccnc2cc(Cl)ccc12)NCCCN1CCCCC1")
14
>>> recorded_result("CCN(CC)CCC/N=C(/Nc1c2ccc(Cl)cc2nc2ccc(OC)nc12)c1ccccc1")
2.8
>>> recorded_result("C/C(=N/c1ccnc2cc(Cl)ccc12)NC1CCN(Cc2ccccc2)CC1")
87
